The following sequences are shown together with reported protein stability index values.
system: Saccharomyces cerevisiae; assay: protein stability index of tFT-peptide fusion (C-terminal peptide) (PSI (0-1 scale)); higher = more stable (slower turnover); details: genetic background: cdc53-1; temperature: 37 C;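 further: PSI is a weighted mean of sequencing reads over stability bins, variants kept only with over 10 reads, mCherry proximal and sfGFP distal, peptide attached via GGGS linker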
No unit in the answer, please; the number alone is enough.

Q) Identify the measured protein stability index of GVFLVWWVGFWV for Saccharomyces cerevisiae.
A) 0.401

Q) What value of protein stability index on Saccharomyces cerevisiae does SFLVRFVYFFAL have?
A) 0.619

Further cases:
Q) Recorded protein stability index for CALLLLSVRAGQ with Saccharomyces cerevisiae, please?
A) 0.57

Q) Quick check: protein stability index on Saccharomyces cerevisiae, item LFFPLPGILSFF ?
A) 0.771

Q) Give Saccharomyces cerevisiae protein stability index for CPALYMPPPVLV
A) 0.13

Q) Notebook entry, Saccharomyces cerevisiae assay: protein stability index of HLKKKLKIRLIN = ?
A) 0.685

Q) Field: protein stability index (Saccharomyces cerevisiae). Entry: RFVLVFLVSLII
A) 0.501

Q) Recorded protein stability index for LCGIFTFRLSLL with Saccharomyces cerevisiae, please?
A) 0.781

Q) Fill in the recorded protein stability index for this sequence, with Saccharomyces cerevisiae as test system: IVRLGRWLGLSC
A) 0.691

Q) For Saccharomyces cerevisiae, provide protein stability index of LYIQWVSRWSVQ please.
A) 0.664

Q) Look up protein stability index with Saccharomyces cerevisiae for this sequence: RLVGVRWEVCNL
A) 0.902
